TGT: T1, EGFRvIII extracellular domain (EGFR (1-29)-G-(298-645)-LESRGPF-Myc-NMHTG-6His) (human, UniProt P00533 298-641)
T1 construct: also called recombinant EGFRvIII; not shown: Myc tag
ASSAY_PROTOCOL: SPR (Biacore), antibody captured via anti-human Fc, antigen injected

{"BINDER": "Antibody N (AbN) (antibody, V domains shown, Full length IgG1) VH: EVQLQESGPGLVKPSQTLSLTCTVSGYSIGRDFAWNWIRQPPGKGLEWMGYISYSGNTRYQPSLKSRITISRDTSKNQFFLKLNSVTAADTATYYCVTASRGFPYWGQGTLVTVSS VL: DIQMTQSPSSMSVSVGDRVTITCHSSQDITYNVGWLQQKPGKSFKGLIYHGSNLDHGVPSRFSGSGSGTDYTLTISSLQPEDFATYYCVQYDDFPWTFGGGTKLEIK", "kon, M⁻¹ s⁻¹": 137000}
